Target: FcγRIIA (UniProt P12318)
Test: SPR
recorded-metric: pKd
Remember the convention: pKd equals -log10 of concentration in molar.

Notebook: Palivizumab (antibody, V domains shown) VH: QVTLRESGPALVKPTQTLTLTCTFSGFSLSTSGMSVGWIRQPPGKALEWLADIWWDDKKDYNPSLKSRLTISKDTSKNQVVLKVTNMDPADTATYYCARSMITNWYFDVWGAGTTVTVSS VL: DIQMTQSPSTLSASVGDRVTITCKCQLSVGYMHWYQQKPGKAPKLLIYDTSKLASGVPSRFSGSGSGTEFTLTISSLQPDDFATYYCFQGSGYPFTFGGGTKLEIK , pKd read as 5.56
